Test system: MS2 coat protein
Experiment: apparent KD of MS2 coat protein; designed switch direction (-1 OFF switch, 1 ON switch): -1; higher = weaker reporter binding
Settings: input ligand: FMN 200 uM
Quick list: apparent KD of MS2 coat protein per entry.

[
  {
    "residueCodes": "UUCGUGCAGCUUUGCUGUACGCGUACAUGAGGAUCACCCAUGUAGGAUAUGGUAGGCUUUGCUUACUAGAAGGAUAGAGUGAUC [JL EXNG3 1.29] (Eterna round: R96, puzzle: Exclusion NG 3)",
    "unitInfo": "nM",
    "apparent KD of MS2 coat protein": 80.7
  },
  {
    "residueCodes": "AGUAGGAGAGGAUAUACGAAGUCAAAAGACUUCGAUCCUCAACAUGAGGAUCACCCAUGUAGAAGGCUCCUACA [Omei Ex2 BD A1] (Eterna round: R97, puzzle: Exclusion 2)",
    "unitInfo": "nM",
    "apparent KD of MS2 coat protein": 166
  },
  {
    "residueCodes": "GGAUCGAGAGUGAGGAUAUGCUGGUCCUUGGAUCAGCAGAAGGCACAUGAGGAUCACCCAUGUGAUUUCGAUCC [Mat - Exclusion 4 - Eli Mod - D40] (Eterna round: R97, puzzle: Brourd's mod of Exclusion 4)",
    "unitInfo": "nM",
    "apparent KD of MS2 coat protein": 34.6
  },
  {
    "residueCodes": "AUGCGACAUGAGGAUCACCCAUGUGAGGAUAUGCGAAUGCAGACUUCGGUUUGAUAGAGCAGAAGGCGCAGGUA [EX1 #15] (Eterna round: R97, puzzle: Exclusion 1)",
    "unitInfo": "nM",
    "apparent KD of MS2 coat protein": 58.5
  },
  {
    "residueCodes": "AGCUGUGGCCGAGGAUAUACACAUGAGGAUCACCCAUGUAGGCGCGGAAACGCGCUAAAAGGGUUGUAGAAGGCGGUCUCAGCA [Eli eng2 - 054] (Eterna round: R96, puzzle: Exclusion NG 2)",
    "unitInfo": "nM",
    "apparent KD of MS2 coat protein": 471
  }
]

The origin of these recorded values is the supplement of paper PMC9170038.
